# ASSAY COMMENT: In vitro metabolic stability study, rat liver microsomes
# Assay type: in vitro ADME
# APPLIED CONDITIONS: rat, liver microsomes; read-out: CL (clearance rate)
# Protocol: Ten microliters (10 μL, 100 μM/L) of compounds and 80 μL of liver microsomes were mixed and incubated at 37 °C for 10 min, and then 10 μL of NADPH regenerating system was added. Samples were obtained at 0 min, 5 min, 10 min, 20 min, 30 min and 60 min. respectively, and 300 μL stop solution (cold in 4 °C, including 100 ng/mL tolbutamide and 100 ng/mL labetalol) was added to terminate the reaction. […]
PROPERTY: microsomal CLint at 10 µM (µL/min/mg)
Give the quantity in µL/min/mg, number only.

compound="COc1ccc(N(Cc2ccc(F)cc2)Cc2nc(-c3ccc(C(F)(F)F)cc3)cs2)cc1OC [Compound 32]" recorded_measurement=79.3

Next up:
**Q:** Fill in: microsomal CLint at 10 µM of COc1ccc(N(Cc2ccc(F)cc2)Cc2nc(-c3ccc([N+](=O)[O-])cc3)cs2)cc1OC [Compound 30] is ___
**A:** 122
